This collection of values is drawn from paper PMC9157009.

# target-entity: GSK3β (NLuc-GSK3β) (Homo sapiens, UniProt P49841)
# Construct: host or cells: HEK293T
# Sequence (P49841 whole entry): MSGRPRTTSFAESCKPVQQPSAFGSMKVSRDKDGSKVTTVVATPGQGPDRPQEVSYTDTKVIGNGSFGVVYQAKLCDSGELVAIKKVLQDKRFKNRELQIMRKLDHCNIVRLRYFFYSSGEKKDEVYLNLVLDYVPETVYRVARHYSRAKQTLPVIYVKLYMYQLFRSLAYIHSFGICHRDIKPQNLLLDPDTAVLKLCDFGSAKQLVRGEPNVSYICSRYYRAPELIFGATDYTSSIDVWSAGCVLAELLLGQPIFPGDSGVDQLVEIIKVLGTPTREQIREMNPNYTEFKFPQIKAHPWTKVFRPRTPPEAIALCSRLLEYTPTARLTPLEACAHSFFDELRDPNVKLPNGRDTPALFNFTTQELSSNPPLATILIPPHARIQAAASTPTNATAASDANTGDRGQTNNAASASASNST
# experiment-notes: NanoBRET cellular target engagement assay, NLuc-GSK3β in HEK293T cells
# Type: cell-based
# experimental-conditions: live HEK293T cells, 0.063 μM tracer K-8; read-out: NL-GSK3β NanoBRET IC50
assay-endpoint: pIC50
In textbook form, pIC50 equals minus log to base ten of the concentration in mol/L.

# molecule Cc1cc(Nc2cc(C3CC3)[nH]n2)nc(Nc2ccc(CC#N)cc2)n1 [APY69, reference compound] ; its pIC50 = 9.64

---

# target-entity: GSK3β (NLuc-GSK3β) (Homo sapiens)
# Construct: host or cells: HEK293T
# experiment-notes: NanoBRET cellular target engagement assay, NLuc-GSK3β in HEK293T cells
# Assay type: cell-based
# experimental-conditions: live HEK293T cells, 0.063 μM tracer K-8; read-out: GSK3β NanoBRET assay, inactive up to
pIC50: −log10 of the molar value.
assay-endpoint: pIC50

# molecule `COc1cnc(COc2ccc(F)c(F)c2)cc1-c1cc2c([nH]1)CCNC2=O` ; its pIC50 = < 5.00

---

# target-entity: CK1γ2 (NLuc-CK1γ2) (Homo sapiens, UniProt P78368)
# Sequence (P78368 whole entry): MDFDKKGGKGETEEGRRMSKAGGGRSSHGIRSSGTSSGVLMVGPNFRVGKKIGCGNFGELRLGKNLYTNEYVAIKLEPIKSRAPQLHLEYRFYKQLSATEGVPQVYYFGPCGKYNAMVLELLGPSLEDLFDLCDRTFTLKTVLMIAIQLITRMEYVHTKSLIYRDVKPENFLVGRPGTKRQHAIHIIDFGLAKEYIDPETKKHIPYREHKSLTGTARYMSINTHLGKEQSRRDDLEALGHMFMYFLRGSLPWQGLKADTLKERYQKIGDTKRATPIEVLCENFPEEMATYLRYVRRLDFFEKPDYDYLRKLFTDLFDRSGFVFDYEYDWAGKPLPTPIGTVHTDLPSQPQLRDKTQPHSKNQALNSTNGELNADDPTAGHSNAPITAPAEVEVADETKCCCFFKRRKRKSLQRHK
# experiment-notes: NanoBRET cellular target engagement assay, NLuc-CK1γ2 in HEK293T cells
# experimental-conditions: live HEK293T cells, 0.5 μM tracer K-10; read-out: NL-CK1γ2 NanoBRET IC50
assay-endpoint: IC50
Please make sure the unit comes right after the number.

# compound COc1cnc(COc2ccc(F)c(F)c2)cc1-c1cc2c([nH]1)CCNC2=O [FP1-24-2] ; its IC50 = 0.0107 µM
